System: CAKI-1
Assay: NCI tumour cell line growth inhibition, 48 h
Calls of active or inactive are those of the source. No stated cut-off is given here; in the data, active = GI50 up to about 1.1 µM and inactive = higher.
Outcomes: active, inactive

1) CCOC(=O)CO/N=C\C1=CC(=O)C2CC1C2(C)C (centres undefined)	inactive
2) CC(=O)O[C@H]1C[C@H]2[C@@H](OC(C)=O)/C=C3\C[C@](C)(C(=O)[C@H](O)C(=C1C)C2(C)C)[C@@H](O)C[C@@H]3OC(=O)[C@H](O)[C@H](c1ccccc1)N(C)C	inactive
3) Cc1c(/C=N/NC(=S)Nc2ccc([N+](=O)[O-])cc2)c(=O)n(-c2ccccc2)n1C	inactive
4) CC(C)C1(NC(=O)C2CC3c4cccc5[nH]cc(c45)CC3N(C)C2)OC2(O)C3CCCN3C(=O)C(Cc3ccccc3)N2C1=O (centres undefined)	inactive
5) CCOc1cc(CCNC)c2c(ccc3ccc(OC)c(O)c32)c1OC	inactive
6) CCOC(OCC)C(CC)[Se]c1ccccc1 (centres undefined)	inactive
7) O=C1C=C2C(=NC34CCCCC3C(c3ccccc3)C3=C(c5ccccc5CC3)N24)c2ccccc21 (centres undefined)	inactive
8) Nc1ncnc(NC2C=C(CO)C(O)C2O)c1[N+](=O)[O-] (centres undefined)	inactive
9) COc1cc(/C=C/c2ccc(/C=C/c3cc(OC)c(OC)c(OC)c3)cc2)cc(OC)c1OC	inactive
10) CCN(CC)CCCN(c1cc(OC)cc2nccnc12)S(=O)(=O)c1ccc(C)cc1	inactive
11) O=S(=O)(O)c1ccc2c(/N=N/c3cccc4ccccc34)c(O)ccc2c1	inactive
12) COc1cc2c(c(OC)c1OC)C(=O)c1c(O)cc(C)c(OC)c1C2=O	inactive
13) COc1cc(N(CCC#N)CCC#N)ccc1/C=C1\SC(=S)NC1=O	inactive
14) CC(=O)OCc1c(C)c2ccccc2n1C(C)=O	inactive
15) COc1cccc(/C(Cl)=C(\C=O)c2cccc(OC)c2)c1	inactive
16) CO[C@]1(c2ccc([N+](=O)[O-])cc2)Oc2ccccc2C(=O)[C@@]1(Nc1ccc(C=O)cc1)OC	inactive
17) NC(=O)COC(=O)c1c(Cl)nc2sccn12	inactive
18) CC(N)C(=O)OCN1C(=O)C2C3C=CC(C2C1=O)C1C2C(=O)N(COC(=O)C(C)N)C(=O)C2C31 (centres undefined)	inactive
19) OCCCCCCOc1ccc(-c2cc(-c3ccccn3)nc(-c3ccccn3)c2)cc1	active
20) Cc1cc(C(O)CNC(C)CCn2cnc3c2c(=O)n(C)c(=O)n3C)ccc1O (centres undefined)	inactive
21) Cc1ccc(/C=C/C(=O)c2c([O-])on[n+]2-c2ccccc2)cc1	inactive
22) CCc1nnc(S)n1/N=C/c1ccc(-c2ccc([N+](=O)[O-])cc2)o1	inactive
23) CO/C(=N\N=C\c1ccccc1F)c1ccncc1	inactive
24) Cc1cccc(/C=N/NC(=S)NCCc2ccccn2)n1	inactive
25) CNC(=S)N1CCN(C(C)=O)C1=S	inactive
26) Nc1nc(CCC(=O)Nc2cccc(C(F)(F)F)c2)cc(-c2ccc3ccccc3c2)n1	inactive
27) CC1=C(C#N)C(=C(C#N)C#N)OC1(C)Cc1ccccc1 (centres undefined)	inactive
28) Cc1n[nH]c(C(F)(F)F)c1/N=N/N1CCOCC1	inactive
29) [N-]=[N+]=Nc1ccc(S(=O)(=O)Oc2cc(OS(=O)(=O)c3ccc(N=[N+]=[N-])cc3)cc(OS(=O)(=O)c3ccc(N=[N+]=[N-])cc3)c2)cc1	inactive
30) O=C1N=C(S)NNC12c1ccccc1-c1ccccc12	inactive
31) CCN(CC)Cc1cc(Nc2c3ccccc3nc3c4ccccc4n(C)c23)ccc1O	inactive
32) CC1CC2C3CCC4=CC(=O)C=CC4(C)C3(F)C(O)CC2(C)C1(O)C(=O)CO.Cc1cc(NS(=O)(=O)c2ccc(/N=N\c3cc(/N=N/c4ccc(S(=O)(=O)Nc5cc(C)nc(C)n5)cc4)c(OC(=O)C(Cl)Cl)c4cccc(NC(=O)C(Cl)Cl)c34)cc2)nc(C)n1	inactive
33) O=C(O)Cc1ccc(-n2nnc3c(=O)[nH][nH]c(=O)c32)cc1	inactive
34) Cc1ccc2c(c1)C/C(=C\c1ccccc1C(=O)O)C2=O	inactive
35) N#Cc1ccc(Oc2nc3ccccc3nc2C(=O)O)cc1	inactive
36) CCOC(=O)C1=C(NC(C)(C)C)OCC1=O	inactive
37) C=C(C=O)c1c2c(nc3ccccc13)C(=O)c1ccccc1C2=O	active
38) Cc1ccc(N2C(=O)C(O)=C(C(=O)C(C)(C)C)C2c2ccc([N+](=O)[O-])cc2)cc1 (centres undefined)	inactive
39) Cc1c(C)c(C)c(-n2c(=O)n(C)c(=O)n2-c2cc(C(C)(C)C)cc(C(C)(C)C)c2O)c(C)c1C	inactive
